Metric Name: logP

*Q* Which logP value is on record for `O=C(O)c1ccccc1Nc1ccccc1` ?
*A* 4.36

***
*Q* Fill blank: measured logP of the compound `CC(C)CO` is ____.
*A* 0.76

*Q* Given `O=C(Oc1ccccc1)c1ccccc1` , state its recorded logP.
*A* 3.59

*Q* For `CC=Cc1ccccc1` , what is its reported logP?
*A* 3.35

*Q* Given the compound `Cc1ccc(CO)cc1` , what is its reported logP?
*A* 1.58

*Q* logP for `CC(C)C(=O)C(C#N)=NNc1ccc(Cl)cc1C(F)(F)F` ?
*A* 5.67

*Q* Record request: logP value, item `Cc1cn([C@H]2C[C@H](O)[C@@H](CO)O2)c(=O)[nH]c1=S`
*A* -0.07

*Q* Data request, read-out logP, for `NC(=O)Cc1cccnc1`
*A* -0.71

*Q* So what does the record say about logP for `Nc1ccccc1Cl` ?
*A* 1.9

*Q* Value lookup for logP; key = `COP(=O)(OC)OC=C(Cl)Cl`
*A* 1.47

*Q* Given the compound `CC(C)CN` , what is its reported logP?
*A* 0.73

*Q* Fill blank: measured logP of the compound `CCOC(=O)c1cccnc1` is ____.
*A* 1.32

*Q* Which logP value belongs to `CC1=C(C(=O)Nc2ccccc2)SCCO1` ?
*A* 2.14

*Q* Could you tell me which logP is on file for `O=C(O)COc1ccc(Cl)cc1Cl` ?
*A* 2.81
